Would you kindly list pIC50 for each of these compounds?
- EXPERIMENT_SUMMARY: Cytotoxicity against human PC3 cells measured at 72 hrs post dose by Celltiter-Glo luminescent cell viability assay
- Assay type: functional, cell-based
- MEASUREMENT_SETUP: PC-3, 72 h
The scale used: pIC50 is minus the common logarithm of the concentration in molar units.

Tell me measured pIC50 for CC(=O)SCCC[P+](c1ccc(F)cc1)(c1ccc(F)cc1)c1ccc(F)cc1.[Br-] please.
3.60

Tell me measured pIC50 for CC(=O)SCCC[P+](c1ccccc1)(c1ccccc1)c1ccccc1.[Br-] please.
4.17

Tell me measured pIC50 for C/C(N)=C/[P+](c1ccccc1)(c1ccccc1)c1ccccc1 please.
5.10

Tell me measured pIC50 for Cc1ccc(-c2nc([P+](c3ccccc3)(c3ccccc3)c3ccccc3)c[se]2)cc1 please.
6.40
